# target under test: T1, Human CD19-his protein (human, UniProt P15391 20-291)
# T1 construct: bought protein; also called recombinant human CD19-His; CD19 full-length protein; not shown: His tag
# T1 sequence (looked up): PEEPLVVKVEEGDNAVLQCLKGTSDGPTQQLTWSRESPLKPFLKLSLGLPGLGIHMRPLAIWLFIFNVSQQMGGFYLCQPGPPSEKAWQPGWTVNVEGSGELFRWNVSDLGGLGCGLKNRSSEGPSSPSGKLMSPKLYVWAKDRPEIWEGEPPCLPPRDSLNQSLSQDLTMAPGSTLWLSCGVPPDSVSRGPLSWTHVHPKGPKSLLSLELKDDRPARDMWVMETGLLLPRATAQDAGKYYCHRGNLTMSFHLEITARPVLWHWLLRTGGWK
# assay info: SPR Biacore, Ab captured on Protein A, CD19-His analyte
Threshold check on kon: strictly below 200000 M⁻¹ s⁻¹ is true; on or above 200000 M⁻¹ s⁻¹ is false.

Query: Please determine if F4.21.2 (antibody, human IgG1, V domains shown, human-murine chimeric antibody, human IgG1 constant) VH: QVQLKQSGPGLVQPSQSLSITCTVSGFSLSTYGVHWVRQSPGRGLEWLGVIWIGGTTDYNAAFISRLTISKDNSRGQVFFKMDSLQANDTAIYYCARKGYYKYDGGYYYAMDYWGQGTSVTVSS VL: DIQMTQSSSYLSVSLGGRVTITCKASDHINNWLAWYQQKPGNAPWLLISGATSLETGVPSRFSGSGSGKDYTLSISSLQTEDVATYYCQQYWSTPLTFGAGTKLELK is below 200000 M⁻¹ s⁻¹ in terms of kon.
Reply: true

Query: Please determine if F4.145.9 (antibody, human IgG1, V domains shown, human-murine chimeric antibody, human IgG1 constant) VH: EVQLVESGGGLVKPGGSLKLSCAAAGFAFSSYDMSWVRQIPEKRLEWVAYISAGGGNTYFLDTVKGRFTISRDHAKNTLSLQMSSLKSEDTAMYFCVRHGDYYRYFYAMDYWGQGSSVTVSS VL: DIVMTQSHKFMSTSVGDRVSITCKASQDVGTAVAWSQQKPGQSPKLLIYWASTRHTGVPDRFTGSGSGTDFTLTISNVQSEDLADYFCQQFVTYPYTFGGGTKLEIK is below 200000 M⁻¹ s⁻¹ in terms of kon.
Reply: true

Query: Please determine if F5.3.6 (antibody, human IgG1, V domains shown, human-murine chimeric antibody, human IgG1 constant) VH: DVQLQESGPGLVKPSQSQSLTCSVTGYSITSGYYWNWIRQFPGNKLEWMGYISYDGSNNYNPSLKNRISITRDTSKNQFFLKLNSVTTEDTVTYYCARAPLTGDRYWYFDVWGTGTTVTVSS VL: DIVLTQSPASLAVSLGQRATISCRASQSVSTSSYSYMHWYQQKPGQTPKLLIKYASNLKSGVPARFSGSGSGTDFTLNIHPVEEEDTATYYCQHSWEIPPTFGGGTKLEIK is below 200000 M⁻¹ s⁻¹ in terms of kon.
Reply: true

Query: Please determine if F4.58.6 (antibody, human IgG1, V domains shown, human-murine chimeric antibody, human IgG1 constant) VH: QVQLQQPGAELVKPGASVKLSCKASGYTFTSYWMHWVKQRPGQGLEWIGEIDPSDSYSNYNQKFKGKATLTVDKSSSTAYMQLSSLTSEDSAVYYCARSNYGSSYGYFDVWGAGTTVTVSS VL: QIVLTQSPAIMSASPGEKVTMTCSVSSSLSYMHWYQQKPGTSPKRWIYDTSKLASGVPARFSGSGSGTSYSLTISSMEAEDAATYYCHQRSSYPTFGGGTKLEIK is below 200000 M⁻¹ s⁻¹ in terms of kon.
Reply: true

Query: Please determine if F5.7.1 (antibody, human IgG1, V domains shown, human-murine chimeric antibody, human IgG1 constant) VH: QVTLKESGPGILQPSQTLSLTCSFSGFSLTTFGMGVGWIRQPSGKGLEWLTHIWWDDDKYYNPALKSRLTISKDTSKNQVFLRIANVDTADTATYYCARVITTGVPYFDYWGQGTTLTVSS VL: ENVLTQSPAIMSASPGEKVTMTCRASSSVSSSYLYWYQQKSGASPKLWISSTSNLASGVPARFSGSGSGTSYSLTINSVEAEDAATYYCQQYSGYPWTFGGGTKLEIK is below 200000 M⁻¹ s⁻¹ in terms of kon.
Reply: true

Query: Please determine if F4.82.11 (antibody, human IgG1, V domains shown, human-murine chimeric antibody, human IgG1 constant) VH: QVTLKESGPGILQASQTLSLTCSFSGFSLSTFGIGVGWVRQPSGKGLEWLAHIWWNDNKFFNTTLKNRLTLSKDPSNNQVFLKIASVDTADTATYYCARSRSALITTGLYAMDYWGQGTSVTVSS VL: DIQMTQTPSSLSASLGDRVTISCRSSQDISNYVNWYQQKPDGTVKVLINYTSRLHSGVPSRFSGSGSGTDYSLTISNLEQEDIASYFCQQGFTLPYTFGGGTKLEIK is below 200000 M⁻¹ s⁻¹ in terms of kon.
Reply: true

Query: Please determine if F4.37.6 (antibody, human IgG1, V domains shown, human-murine chimeric antibody, human IgG1 constant) VH: QVQLQQSGAELARPGASVKLSCKASGYTFTSFWMQWLKQRPGQGLEWIGTIYPGDGDTRYTQKFKGKATLTADKSSNTAYMQLSSLASEDSAVYYCARGALSNYGGFAYWGQGTLVTVSA VL: NIVLTQSPASLAVSLGQRATISCRASESVDSYGHSFMHWYQQKPGQPPKLLIYLASNLESGVPARFSGSGSRTDFTLTIDPVEADDAATYYCQQNNEDPWTFGGGTKLEIK is below 200000 M⁻¹ s⁻¹ in terms of kon.
Reply: false

Query: Please determine if F2.15.26 (antibody, human IgG1, V domains shown, human-murine chimeric antibody, human IgG1 constant) VH: QVQLKESGPGLVAPSQSLSITCTVSGFSLTDYGVSWIRQSPGKGLEWLGVIWGSGDTYYNSVLESRLSINKDNSKNQVFLKMNSLQTDDAAMYFCAKHSYYGGSFAMDYWGQGTSVTVSS VL: DIQMTQTTSSLSASLGDRVTISCRASQDISNYLNWYQQKPDGTVKLLIYYTSRLHSGVPSRFSGSGSGTDYSLTISNLEQEDIATYFCQQGKTLPWTFGGGTKLEIK is below 200000 M⁻¹ s⁻¹ in terms of kon.
Reply: false
